Overview of recorded peptide hits BMS-PTX-(29)147 for various compounds
# System: THLE-5B-3A4
# EXPERIMENT SUMMARY: LC/LC/MS/MS peptide hits of biomarker polypeptides in conditioned media of treated hepatocytes
# Assay type: cell-based, human
# CONDITION PARAMETERS: 20 hr, concentrations of Table 1

// below: answered compounds
{"COMPOUND": "Cc1oc(-c2ccccc2)nc1CCOc1ccc(C[C@H](Nc2ccccc2C(=O)c2ccccc2)C(=O)O)cc1", "peptide hits BMS-PTX-(29)147": 128}
{"COMPOUND": "CC1(COc2ccc(CC3SC(=O)NC3=O)cc2)CCCCC1 (stereo not shown)", "peptide hits BMS-PTX-(29)147": 239}
{"COMPOUND": "Cc1c(C)c2c(c(C)c1O)CCC(C)(COc1ccc(CC3SC(=O)NC3=O)cc1)O2 (stereo not shown)", "peptide hits BMS-PTX-(29)147": 67}

Query compound follows.
Notebook: CCO[C@@H](Cc1ccc(OCCc2ccc(OS(C)(=O)=O)cc2)cc1)C(=O)O , peptide hits BMS-PTX-(29)147 read as 31

This collection of values is drawn from patent US7452678B2.
